Tested on: Proteus vulgaris
Experiment: In vitro minimum inhibitory concentration for Proteus vulgaris (ATCC-6059) by agar dilution method
Type: functional
Conditions: Proteus vulgaris; read-out: MIC
recorded-endpoint: MIC (µg/mL)

{"compound": "COc1cc(N)nc(SCC2=C(C(=O)[O-])N3C(=O)C(NC(=O)/C(=N\\OC(C)(C)C(=O)O)c4cnc(N)s4)C3SC2)[n+]1C (centres undefined)", "display-unit": "µg/mL", "MIC": 0.13}
{"compound": "CC(C)(O/N=C(\\C(=O)NC1C(=O)N2C(C(=O)[O-])=C(CSc3nc(N)cc(N)[n+]3-c3ccc(O)cc3)CSC12)c1cnc(N)s1)C(=O)O (centres undefined)", "display-unit": "µg/mL", "MIC": 0.13}
{"compound": "CC(C)(O/N=C(\\C(=O)NC1C(=O)N2C(C(=O)O)=C(CSc3nc(O)cc(O)n3)CSC12)c1cnc(N)s1)C(=O)O (centres undefined)", "display-unit": "µg/mL", "MIC": 0.25}
{"compound": "Cc1cc(C)nc(SCC2=C(C(=O)O)N3C(=O)C(NC(=O)/C(=N\\OC(C)(C)C(=O)O)c4cnc(N)s4)C3SC2)n1 (centres undefined)", "display-unit": "µg/mL", "MIC": 0.25}
{"compound": "CCC[n+]1c(N)cc(N)nc1SCC1=C(C(=O)[O-])N2C(=O)C(NC(=O)/C(=N\\OC(C)(C)C(=O)O)c3cnc(N)s3)C2SC1 (centres undefined)", "display-unit": "µg/mL", "MIC": 0.06}
{"compound": "CC(C)(O/N=C(\\C(=O)N[C@@H]1C(=O)N2C(C(=O)[O-])=C(C[n+]3ccccc3)CS[C@H]12)c1csc(N)n1)C(=O)O [CEFTAZIDIME]", "display-unit": "µg/mL", "MIC": 0.06}
{"compound": "Cn1c(O)c[n+]2c(SCC3=C(C(=O)[O-])N4C(=O)C(NC(=O)/C(=N\\OC(C)(C)C(=O)O)c5cnc(N)s5)C4SC3)nc(N)cc12 (centres undefined)", "display-unit": "µg/mL", "MIC": 0.06}
{"compound": "CC(C)(O/N=C(\\C(=O)NC1C(=O)N2C(C(=O)[O-])=C(CSc3nc(N)c4c([n+]3N)CCCC4)CSC12)c1cnc(N)s1)C(=O)O (centres undefined)", "display-unit": "µg/mL", "MIC": 0.06}

1: Cc1c(N)nc(SCC2=C(C(=O)[O-])N3C(=O)C(NC(=O)/C(=N\OC(C)(C)C(=O)O)c4cnc(N)s4)C3SC2)[n+]2ncn(C)c12 (centres undefined)
2: CNc1cc2n(C)cc[n+]2c(SCC2=C(C(=O)[O-])N3C(=O)C(NC(=O)/C(=N\OC(C)(C)C(=O)O)c4cnc(N)s4)C3SC2)n1 (centres undefined)
**Q:** Given 1 and given 2 , which shows the smaller recorded MIC? Provide the label of your selected option as the answer.
**A:** 1
(1: 0.06 µg/mL, 2: 0.13 µg/mL)

A: CN[n+]1c(N)cc(N)nc1SCC1=C(C(=O)[O-])N2C(=O)C(NC(=O)/C(=N\OC(C)(C)C(=O)O)c3cnc(N)s3)C2SC1 (centres undefined)
B: CN(C)c1cc2n(C)cc[n+]2c(SCC2=C(C(=O)[O-])N3C(=O)C(NC(=O)/C(=N\OC(C)(C)C(=O)O)c4cnc(N)s4)C3SC2)n1 (centres undefined)
C: C[n+]1c(O)cc(O)nc1SCC1=C(C(=O)[O-])N2C(=O)C(NC(=O)/C(=N\OC(C)(C)C(=O)O)c3cnc(N)s3)C2SC1 (centres undefined)
**Q:** List items by MIC in falling order. Form entry: labels listed in requested order.
**A:** C, B, A
(C: 0.5 µg/mL, B: 0.25 µg/mL, A: 0.03 µg/mL)

A: CC(C)(O/N=C(\C(=O)NC1C(=O)N2C(C(=O)[O-])=C(CSc3nc(N)cc(N)[n+]3-c3ccc(Cl)cc3)CSC12)c1cnc(N)s1)C(=O)O (centres undefined)
B: CC(C)(O/N=C(\C(=O)NC1C(=O)N2C(C(=O)O)=C(CSc3nccc(O)n3)CSC12)c1cnc(N)s1)C(=O)O (centres undefined)
C: CC(C)(O/N=C(\C(=O)NC1C(=O)N2C(C(=O)O)=C(CSc3nc(N)cc(N)n3)CSC12)c1cnc(N)s1)C(=O)O (centres undefined)
D: CC(C)(O/N=C(\C(=O)NC1C(=O)N2C(C(=O)O)=C(CSc3ncccn3)CSC12)c1cnc(N)s1)C(=O)O (centres undefined)
**Q:** Sort ascending by MIC. Rank the items, then write their labels in that order.
**A:** C, D, A, B
(C: 0.031 µg/mL, D: 0.063 µg/mL, A: 0.25 µg/mL, B: 2 µg/mL)

a: Cn1cc[n+]2c(SCC3=C(C(=O)[O-])N4C(=O)C(NC(=O)/C(=N\OC(C)(C)C(=O)O)c5cnc(N)s5)C4SC3)nc(N3CCOCC3)cc12 (centres undefined)
b: CCn1cc[n+]2c(SCC3=C(C(=O)[O-])N4C(=O)C(NC(=O)/C(=N\OC(C)(C)C(=O)O)c5cnc(N)s5)C4SC3)nc(N)cc12 (centres undefined)
**Q:** Please indicate which entry, a or b , has the lower recorded MIC value. Output the label that corresponds to your choice.
**A:** b

Recorded values, source ChEMBL document CHEMBL1127395.
